assay: Drug metabolism in human plasma after 30 mins; format: ADME, cell-free; conditions: read-out: Drug metabolism
PROPERTY LABEL: metabolised at 0.5 h

Lab book: metabolised at 0.5 h of "O=C(NCCCCC[18F])Oc1cccc(C2=NCCO2)c1" noted as < 5%
